Procedure Summary: refractive index (Na D-line) (dimensionless)
Conditions: 313.15 K; 101.33 kPa; Liquid
Measured refractive index values are reported for all entries that follow.
Metric Name: refractive index

[[record]]
compound = "CCn1cc[n+](C)c1.CS(=O)(=O)[O-] [1-ethyl-3-methylimidazolium methanesulfonate]"
metric_name = "refractive index"
endpoint_result = 1.4949

[[record]]
compound = "CCCCCCCCOS(=O)(=O)[O-].CCn1cc[n+](C)c1 [1-ethyl-3-methylimidazolium octyl sulfate]"
metric_name = "refractive index"
endpoint_result = 1.4712

[[record]]
compound = "CCn1cc[n+](C)c1.CO[PH](=O)[O-] [1-ethyl-3-methylimidazolium methyl phosphonate]"
metric_name = "refractive index"
endpoint_result = 1.4902

[[record]]
compound = "CCCCn1cc[n+](CCCC)c1.O=S(=O)([N-]S(=O)(=O)C(F)(F)F)C(F)(F)F"
metric_name = "refractive index"
endpoint_result = 1.4298


====

Conditions: 273.15 K; 101.33 kPa; Liquid; Surface Light Scattering
± gives the expanded uncertainty stated by the source.
Measured viscosity values are reported for all entries that follow.
Metric Name: viscosity

[[record]]
compound = "CCn1cc[n+](C)c1.CO[PH](=O)[O-] [1-ethyl-3-methylimidazolium methyl phosphonate]"
endpoint_result = "563.9 ± 34 mPa·s"

[[record]]
compound = "CCn1cc[n+](C)c1.CS(=O)(=O)[O-] [1-ethyl-3-methylimidazolium methanesulfonate]"
endpoint_result = "1112.6 ± 67 mPa·s"

[[record]]
compound = "CCCCn1cc[n+](CCCC)c1.O=S(=O)([N-]S(=O)(=O)C(F)(F)F)C(F)(F)F"
endpoint_result = "277.9 ± 17 mPa·s"

[[record]]
compound = "CCCCCCCCOS(=O)(=O)[O-].CCn1cc[n+](C)c1 [1-ethyl-3-methylimidazolium octyl sulfate]"
endpoint_result = "3894.8 ± 230 mPa·s"


====

Conditions: 293.15 K; 101.33 kPa; Liquid; Surface Light Scattering
± gives the expanded uncertainty stated by the source.
Metric Name: viscosity

[[record]]
compound = "CCCCn1cc[n+](CCCC)c1.O=S(=O)([N-]S(=O)(=O)C(F)(F)F)C(F)(F)F"
endpoint_result = "89.5 ± 5.4 mPa·s"

[[record]]
compound = "CCCCCCCCOS(=O)(=O)[O-].CCn1cc[n+](C)c1 [1-ethyl-3-methylimidazolium octyl sulfate]"
endpoint_result = "717.8 ± 43 mPa·s"

[[record]]
compound = "CCn1cc[n+](C)c1.CS(=O)(=O)[O-] [1-ethyl-3-methylimidazolium methanesulfonate]"
endpoint_result = "205.2 ± 12 mPa·s"

[[record]]
compound = "CCn1cc[n+](C)c1.CO[PH](=O)[O-] [1-ethyl-3-methylimidazolium methyl phosphonate]"
endpoint_result = "143.1 ± 8.7 mPa·s"


====

Measured viscosity values are reported for all entries that follow.
Conditions: 333.15 K; 101.33 kPa; Liquid; Surface Light Scattering
Metric Name: viscosity (mPa·s)

[[record]]
compound = "CCn1cc[n+](C)c1.CS(=O)(=O)[O-] [1-ethyl-3-methylimidazolium methanesulfonate]"
unit_label = "mPa·s"
endpoint_result = 31.7

[[record]]
compound = "CCCCCCCCOS(=O)(=O)[O-].CCn1cc[n+](C)c1 [1-ethyl-3-methylimidazolium octyl sulfate]"
unit_label = "mPa·s"
endpoint_result = 80.9

[[record]]
compound = "CCCCn1cc[n+](CCCC)c1.O=S(=O)([N-]S(=O)(=O)C(F)(F)F)C(F)(F)F"
unit_label = "mPa·s"
endpoint_result = 19.2

[[record]]
compound = "CCn1cc[n+](C)c1.CO[PH](=O)[O-] [1-ethyl-3-methylimidazolium methyl phosphonate]"
unit_label = "mPa·s"
endpoint_result = 27.4

